Target: Progesterone receptor (Homo sapiens)
Sequence (P06401 whole entry): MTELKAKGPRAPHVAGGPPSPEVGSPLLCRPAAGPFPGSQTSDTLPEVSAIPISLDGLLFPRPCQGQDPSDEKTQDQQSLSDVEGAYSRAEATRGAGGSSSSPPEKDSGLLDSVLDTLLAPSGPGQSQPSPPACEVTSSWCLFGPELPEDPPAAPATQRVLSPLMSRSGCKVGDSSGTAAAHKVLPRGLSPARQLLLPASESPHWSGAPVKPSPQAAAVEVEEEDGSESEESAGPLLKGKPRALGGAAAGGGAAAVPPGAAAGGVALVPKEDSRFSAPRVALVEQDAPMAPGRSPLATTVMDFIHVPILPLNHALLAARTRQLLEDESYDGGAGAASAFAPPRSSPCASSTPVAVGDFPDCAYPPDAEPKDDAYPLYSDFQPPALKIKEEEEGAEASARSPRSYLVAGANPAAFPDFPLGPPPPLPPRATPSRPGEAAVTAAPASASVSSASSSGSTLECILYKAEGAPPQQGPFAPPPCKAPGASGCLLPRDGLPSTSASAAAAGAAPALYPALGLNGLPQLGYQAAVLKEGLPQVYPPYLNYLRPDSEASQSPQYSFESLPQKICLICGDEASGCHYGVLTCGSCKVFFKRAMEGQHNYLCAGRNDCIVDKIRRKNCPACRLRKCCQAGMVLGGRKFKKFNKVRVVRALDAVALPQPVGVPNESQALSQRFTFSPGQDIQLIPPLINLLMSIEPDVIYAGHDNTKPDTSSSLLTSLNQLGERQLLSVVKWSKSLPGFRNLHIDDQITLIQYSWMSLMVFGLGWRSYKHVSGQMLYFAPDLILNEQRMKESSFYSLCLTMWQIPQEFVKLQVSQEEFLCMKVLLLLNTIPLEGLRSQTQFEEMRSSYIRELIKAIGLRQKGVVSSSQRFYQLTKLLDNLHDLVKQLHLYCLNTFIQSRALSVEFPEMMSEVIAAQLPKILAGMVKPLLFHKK
pIC50: −log10 of the molar value.
Before we begin, note that these pIC50 values for Progesterone receptor (Homo sapiens) originate from several publications.

Example compounds with recorded pIC50:
COc1ccc(F)cc1C(C)(C)CC(O)(Cc1cc2ccncc2[nH]1)C1CCC1 (centres undefined); < 5.70
CC#C[C@]1(O)C[C@H]2CCc3cc(OCc4cccnc4C)ccc3[C@]2(CC)C[C@@H]1O; < 5.00
Cc1cc(N2Nc3cc(O)ccc3-c3c2c2ccc(O)cc2oc3=O)ccc1OCCN1CCC=C(C(=O)O)C1; < 7.00

Qu. Let me know recorded pIC50 for COc1ccccc1-c1ccc2c(c1)C(C(C)OCCc1ccccc1)=CC(C)(C)N2 (centres undefined) , thanks.
Ans. < 5.70

Qu. Supply recorded pIC50 for COC(=O)CSCC1=CC(C)(C)Nc2ccc(-c3ccccc3OC)cc21 here.
Ans. < 5.70

Qu. Fill in pIC50 for record O=C1COc2ccc(C3=Nn4cnnc4SC3c3ccccc3)cc2N1 (centres undefined)
Ans. < 5.00

Qu. Answer with reported pIC50 of CC1(C)OC(=S)Nc2ccc(S(=O)(=O)N3c4ccccc4COc4cc(F)ccc43)cc21
Ans. < 5.70

Qu. Return the recorded pIC50 value; entry: COc1ccc(F)cc1C(C)(C)CC(O)(Cc1cc2ccncc2[nH]1)C(F)(F)F (centres undefined)
Ans. < 5.70

Qu. Using known records, supply pIC50 for C=CCSCC1=CC(C)(C)Nc2ccc(-c3ccc(OC)cc3)cc21
Ans. < 5.70

----------
Multi-source literature compilation: IC50 on Progesterone receptor (Homo sapiens).
result-type: IC50 (µM)

These solved cases illustrate the format of a correct answer.
Cc1c(C#N)c(N)nc2c3c(sc12)NC(=O)CC3c1ccccc1F (stereo not given); 0.631
Fc1ccc(-n2ncc3cc(-c4ccccc4C(F)(F)F)ccc32)cc1; 2.51

P = Cc1cc(F)ccc1-n1nc(C(F)(F)F)cc1-c1cc(F)c2c(c1)NC(=O)CO2
Q = CC(C)(CC(O)(CC1CCCCC1)C(=O)Nc1ccc2c(c1)COC2=O)c1ccccc1 (stereo in doubt)
R = CC[C@@]12C[C@H](O)[C@](O)(c3ccccc3)C[C@H]1CCc1cc(O)ccc12
S = CC(C)(CC(O)(Cn1ccc(=O)c2ccccc21)C(F)(F)F)c1ccccc1 (stereo not given)
T = CC(C)(C[C@@](O)(Cc1cc2ccncc2[nH]1)C(F)(F)F)c1cc(F)ccc1O
Qu. Given 5 molecules, produce a descending ranking by IC50. To answer, arrange all of the labels according to the requested order.
Ans. P, T, R, Q, S

----------
Here is a set of compounds with reported IC50 for Progesterone receptor (Homo sapiens), compiled from the literature.
Molecular target: Progesterone receptor (Homo sapiens)
Sequence (P06401 whole entry): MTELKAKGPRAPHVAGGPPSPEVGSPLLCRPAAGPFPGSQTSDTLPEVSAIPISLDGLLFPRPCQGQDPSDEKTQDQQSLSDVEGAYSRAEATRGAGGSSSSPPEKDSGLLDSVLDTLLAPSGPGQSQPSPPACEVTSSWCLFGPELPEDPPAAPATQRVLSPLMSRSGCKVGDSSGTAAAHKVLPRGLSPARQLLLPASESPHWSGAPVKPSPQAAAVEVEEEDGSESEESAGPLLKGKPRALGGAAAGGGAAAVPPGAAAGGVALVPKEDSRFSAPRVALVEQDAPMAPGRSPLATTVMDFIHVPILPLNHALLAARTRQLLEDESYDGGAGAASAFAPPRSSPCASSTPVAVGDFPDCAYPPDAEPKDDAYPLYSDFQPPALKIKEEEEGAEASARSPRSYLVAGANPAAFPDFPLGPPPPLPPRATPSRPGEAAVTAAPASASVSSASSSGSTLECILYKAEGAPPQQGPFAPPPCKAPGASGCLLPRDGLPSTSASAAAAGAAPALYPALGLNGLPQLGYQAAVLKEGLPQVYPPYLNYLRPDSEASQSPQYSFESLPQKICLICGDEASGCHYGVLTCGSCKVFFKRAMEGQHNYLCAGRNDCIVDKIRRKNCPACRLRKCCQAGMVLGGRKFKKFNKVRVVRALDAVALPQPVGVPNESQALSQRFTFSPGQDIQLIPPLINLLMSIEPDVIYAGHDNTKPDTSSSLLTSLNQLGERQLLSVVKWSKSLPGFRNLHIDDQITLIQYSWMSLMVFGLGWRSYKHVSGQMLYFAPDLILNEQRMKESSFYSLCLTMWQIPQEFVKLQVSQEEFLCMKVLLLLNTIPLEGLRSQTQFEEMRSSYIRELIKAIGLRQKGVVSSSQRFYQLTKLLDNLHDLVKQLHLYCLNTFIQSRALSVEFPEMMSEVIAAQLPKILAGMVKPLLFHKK

C[C@]12Cc3cnn(-c4ccc(F)cc4)c3C=C1CCC21OCCO1 (stereo in doubt; 13); > 1 µM

Qu. Given COc1ccc(F)cc1-c1ccc2c(c1)C(CSCCc1ccccc1)=CC(C)(C)N2 , respond with its IC50.
Ans. > 2 µM

Qu. Name the recorded IC50 of the item C=CCOCC1=CC(C)(C)Nc2ccc(-c3ccccc3OC)cc21 in your answer.
Ans. > 2 µM

Qu. In one line, give reported IC50 of the entry COc1ccc(-c2cncnc2)cc1C(C)(C)C[C@@](O)(Cc1cc2ccncc2[nH]1)C(F)(F)F .
Ans. > 2 µM

Qu. For COc1ccccc1-c1ccc2c(c1)C(CSCCC(C)C)=CC(C)(C)N2 , write its IC50.
Ans. > 2 µM

Qu. Complete the entry with IC50 for Oc1ccc(-c2ccc3c(cnn3-c3ccc(F)cc3)c2)cc1
Ans. > 10 µM

----------
Published IC50 for Progesterone receptor (Homo sapiens), assembled from different documents, is shown next.

Qu. Provide IC50, recorded with Progesterone receptor (Homo sapiens), of COc1ccc(F)cc1C(C)(C)CC(O)(Cc1cc2cccnc2[nH]1)C(F)(F)F (stereo not given)
Ans. > 2000 nM

Qu. # return IC50 for O=C(COCN1CCCCC1)CN1Nc2cc(O)ccc2-c2c1c1ccc(O)cc1oc2=O , test system: Progesterone receptor (Homo sapiens)
Ans. > 100 nM

Qu. Lab note: Progesterone receptor (Homo sapiens) assay, enter IC50 for C=CCSCC1=CC(C)(C)Nc2ccc(-c3ccccc3[N+](=O)[O-])cc21 here
Ans. > 2000 nM

Qu. With Progesterone receptor (Homo sapiens) as the test system, provide measured IC50 for this compound: COc1ccc(F)cc1C(C)(C)CC(O)(Cc1cc2ccncc2[nH]1)C1CCCC1 (single isomer, unassigned)
Ans. > 2000 nM

Qu. Please look at CC[C@@H](Cn1ccc2ccccc21)NS(=O)(=O)c1c(N)cc(Cl)cc1Cl and tell me its recorded IC50 on Progesterone receptor (Homo sapiens).
Ans. > 10000 nM

----------
The compounds below each have a reported IC50 tested on Progesterone receptor (Homo sapiens); the values come from various publications.
result-type: IC50 (nM)

Cc1cc(C)c(S(=O)(=O)NC(COc2ccccc2)C(F)(F)F)c(C)c1 (stereo unspecified); 6400
Cc1cc(C)c(S(=O)(=O)NC(Cc2c[nH]c3ccc(C)cc23)C(F)(F)F)c(C)c1 (stereo unspecified); 6000
CC(C)NS(=O)(=O)c1ccc(-c2ccc3c(cnn3-c3ccc(F)cc3)c2)c(C(F)(F)F)c1; 3160
Cc1cc(C)c(S(=O)(=O)NC(C)Cc2c[nH]c3ccccc23)c(C)c1 (stereo unspecified); 1400

1 = COc1ccc(F)cc1C(C)(C)CC(O)(Cc1cc2ccncc2s1)C(F)(F)F (stereo unspecified)
2 = C=CCOC(CC=C)C1=CC(C)(C)Nc2ccc(-c3ccccc3OC)cc21 (stereo unspecified)
Qu. Returns: the label, 1 or 2 , whose recorded IC50 is the lower number. Write the label of whichever entry you select.
Ans. 2
(2: 440 nM, 1: 1300 nM)
